test: Human HepG2 cell viability assay in 384 well format; format: toxicity, cell-based; parameters: dose 125 nL, time 70.5 hour; concentration not given beside the values; conditions: HepG2 cells, read-out: Inhibition
readoutKind: cytotoxicity at 70.5 h

Consider the reported cytotoxicity at 70.5 h for these molecules:
CCc1ccc(C(=O)NC(C)c2ccc(S(C)(=O)=O)c(F)c2)o1 (stereo unspecified) ... 13.1%
CCOCC(=O)N1CSCC1C(=O)N(C)Cc1ccco1 (stereo unspecified) ... 15.7%
Cc1ccc(N2CC[C@H]3OCC[C@@]3(C(=O)N3CCCO3)C2)nn1 ... -4.42%
CCOC(C)c1nc(CN2CCN(Cc3cccnc3)CC2)cs1 (stereo unspecified) ... -4.18%
O=C1COc2ccc(C(=O)NS(=O)(=O)c3ccc(F)cc3F)cc2N1 ... -0.102%
Cc1cnn(CC2CN(CC(=O)NCc3ccc(C)s3)CCO2)c1 (stereo unspecified) ... -13.6%

Given the entry CCn1ncnc1C1CC(=O)NCc2nc(N3CCOCC3)sc21 (stereo unspecified) , report its measured cytotoxicity at 70.5 h.
-20.5%

Given the entry CCO[C@@H]1CC[C@H]2[C@H]1OCCN2S(=O)(=O)C1CC1 , report its measured cytotoxicity at 70.5 h.
-11.4%

Given the entry Cc1cc(C(=O)N[C@H]2CN(CCC(N)=O)C[C@@H]2C2CC2)sc1C , report its measured cytotoxicity at 70.5 h.
9.55%

Given the entry Cn1ccnc1CN1CC[C@@H](NS(C)(=O)=O)[C@@H]1Cc1ccccc1 , report its measured cytotoxicity at 70.5 h.
-10.6%

* * *

assay: Human HepG2 cell viability assay in 384 well format; format: toxicity, cell-based; design: dose 125 nL, time 70.5 hour; concentration not given beside the values; details: HepG2 cells, read-out: Inhibition
Recorded cytotoxicity at 70.5 h for the following molecules
Your answer should be a plain number; it is taken to be in %.

Consider the reported cytotoxicity at 70.5 h for these molecules:
CCc1ccc(CNC(=O)c2ccc(N3CCOC3=O)cc2)s1 ... 20.2
Cc1cc(C)n(CC2CCCCN2CC(=O)Nc2cccnc2)n1 (centres undefined) ... 17.8
CCc1ncc2c(n1)CN(Cc1nnc(C)o1)CC2 ... -8.24
O=C(NCCOc1ccc(C(F)(F)F)cn1)c1ccoc1 ... -6.01
COc1c(C)cnc(CNC(=O)c2cc(C)nc3c2c(C)nn3C)c1C ... -6.5

Given the entry Cc1csc(CN2CCC(C(=O)O)(n3ccc(-c4ccco4)n3)CC2)n1 , report its measured cytotoxicity at 70.5 h.
-7.21

Given the entry Cc1cnc(C(=O)N2CC[C@H]3[C@@H]2CCC(=O)N3c2cccnc2)cn1 , report its measured cytotoxicity at 70.5 h.
-14.6

Given the entry c1ccc2sc(N3CCOC(Cn4cccn4)C3)nc2c1 (centres undefined) , report its measured cytotoxicity at 70.5 h.
3.57

Given the entry COc1ccc(C(C)NCc2scnc2C)cc1Cn1cccn1 (centres undefined) , report its measured cytotoxicity at 70.5 h.
0.409

Given the entry CCS(=O)(=O)N1CCc2c(COC)cncc2C1 , report its measured cytotoxicity at 70.5 h.
17.2

Given the entry CC(C(N)=O)N(C)CCCc1cc(-c2ccc(F)cc2)n(C)n1 (centres undefined) , report its measured cytotoxicity at 70.5 h.
-9.74

Given the entry Cc1ccc(CN2CC[C@H]3C(=O)N(c4cccnc4)CCO[C@H]3C2)o1 , report its measured cytotoxicity at 70.5 h.
-5.97

Given the entry CCCn1cc(NC(=O)c2ccncc2)ccc1=O , report its measured cytotoxicity at 70.5 h.
-8.23

Given the entry Cc1nnc(CN2CCN(CC(O)c3ccccc3)CC2)o1 (centres undefined) , report its measured cytotoxicity at 70.5 h.
-1.4

Given the entry Cc1cnn(C2CCCN(C(=O)c3ccnc(N(C)C)c3)C2)c1 (centres undefined) , report its measured cytotoxicity at 70.5 h.
28.8

* * *

test: Human HepG2 cell viability assay in 384 well format; assay type: toxicity, cell-based; parameters: dose 125 nL, time 70.5 hour; concentration not given beside the values; settings: HepG2 cells, read-out: Inhibition
Recorded cytotoxicity at 70.5 h for the following molecules

Consider the reported cytotoxicity at 70.5 h for these molecules:
Cc1ccc(C(=O)N2C[C@@H]3CCN(c4cccnc4)C[C@@H]3C2)cn1 ... -12.4%
O=C(Cn1c(=O)nc2n1C(=O)N(c1ccccc1)C2)NC1CCCCC1 ... -7.65%
O=C1NCC(C(=O)Nc2ncc(Cc3cccc(F)c3)s2)N1 (stereo unspecified) ... -6.09%
O=C(Cc1ccccc1F)N1C[C@@H]2COC[C@]2(COc2cccnc2)C1 ... -11.5%
CCCc1nnc(N2CCC(N3CCCC3)CC2)o1 ... 26%
CCOCCC(=O)NC(Cc1ccc(C)cc1)c1ccccn1 (stereo unspecified) ... 0.116%

Given the entry CCn1c(C)nnc1CN(C)C1CCN(CCS(=O)(=O)CC)C1 (stereo unspecified) , report its measured cytotoxicity at 70.5 h.
-5.35%

Given the entry CNC(=O)CN1CCC(NC(=O)N(C)Cc2c(C)noc2C)CC1 , report its measured cytotoxicity at 70.5 h.
26.1%

Given the entry CS(=O)(=O)NCCC(=O)N1CCN(S(=O)(=O)c2ccc(Br)cc2)CC1 , report its measured cytotoxicity at 70.5 h.
6.55%

Given the entry CN(Cc1ccc2nsnc2c1)CC1(O)CNCCOC1 (stereo unspecified) , report its measured cytotoxicity at 70.5 h.
-6.32%

Given the entry Cc1cccc(Cn2ccc(NS(C)(=O)=O)n2)c1 , report its measured cytotoxicity at 70.5 h.
-4.99%

* * *

experiment: Human HepG2 cell viability assay in 384 well format; format: toxicity, cell-based; set-up: dose 125 nL, time 70.5 hour; concentration not given beside the values; settings: HepG2 cells, read-out: Inhibition
Recorded cytotoxicity at 70.5 h for the following compounds
Your answer should be a plain number; it is taken to be in %.

Consider the reported cytotoxicity at 70.5 h for these compounds:
CCC(C)N(Cc1sccc1C)C(=O)c1ccc(S(C)(=O)=O)cc1 (configuration not stated) ... -4.15
COCCc1ncc(CN2CCC3(CCCN(CC4CC4)C3)C2)cn1 (configuration not stated) ... 0.629
Cn1nc(CN2CCOCC2)c2c1CN(Cc1ccsc1)C2 ... -5.85
COc1ccc(CNC(=O)N2CCCN(CC3CCCCC3)CC2)cn1 ... -5.17
CC(CO)(NC(=O)NCc1ccc(Br)s1)C1CC1 (configuration not stated) ... -8.92
CNCC[C@H]1CC(C)(C)Oc2ccc(OCC3CC3)cc21 ... 7.09

Given the entry CO[C@@H]1CCN(Cc2ccccn2)[C@@H]2CN(Cc3ccco3)C[C@@H]21 , report its measured cytotoxicity at 70.5 h.
32.3

Given the entry CN(CC(=O)NCC1CCCO1)Cc1nc2c(s1)CCCC2 (configuration not stated) , report its measured cytotoxicity at 70.5 h.
25.9

Given the entry O=C(COCc1ccccc1Cl)Nc1ccnn1CC1CCOC1 (configuration not stated) , report its measured cytotoxicity at 70.5 h.
-18.3

* * *

assay: Human HepG2 cell viability assay in 384 well format; type: toxicity, cell-based; design: dose 125 nL, time 70.5 hour; concentration not given beside the values; conditions: HepG2 cells, read-out: Inhibition
readoutKind: cytotoxicity at 70.5 h (%)
Your answer should be a plain number; it is taken to be in %.

Consider the reported cytotoxicity at 70.5 h for these molecules:
Cc1nn(C)cc1S(=O)(=O)N(C)[C@@H]1CCC[C@@H](n2ccnc2)[C@@H]1O ... 19.1
Cc1ccsc1C(=O)N1CCCn2c(nc(CN(C)C)cc2=O)C1 ... 8.58
Cc1ccc(NC(=O)Cn2ccc3c(=O)n(C)ccc32)cc1F ... -5.99
Cc1nc(C)n(CC2CCCN(Cc3nnc(-c4ccco4)o3)C2)n1 (stereo unspecified) ... -2.38
COc1ncccc1NC(=O)N1CCC(CNC(C)=O)CC1 ... -7.14

Given the entry Cc1cnc(N2CCc3onc(COc4cccnc4)c3C2)nc1 , report its measured cytotoxicity at 70.5 h.
-3.25

Given the entry CN(Cc1ccsc1)C(=O)c1cccc(S(=O)(=O)NCC2CCCO2)c1 (stereo unspecified) , report its measured cytotoxicity at 70.5 h.
15.1

Given the entry OCC1CN(Cc2nc(C(F)(F)F)cs2)c2ccccc2O1 (stereo unspecified) , report its measured cytotoxicity at 70.5 h.
-9.55

* * *

assay: Human HepG2 cell viability assay in 384 well format; format: toxicity, cell-based; set-up: dose 125 nL, time 70.5 hour; concentration not given beside the values; details: HepG2 cells, read-out: Inhibition
Recorded cytotoxicity at 70.5 h for the following compounds
Your answer should be a plain number; it is taken to be in %.

CN(C)c1ccc(CCNC(=O)C2CCC(=O)N(C3CCCC3)C2)cc1 (centres undefined) ... -8
Cc1noc(C)c1CN(C)C(=O)Nc1cnn(CC2CCCO2)c1 (centres undefined) ... -16.8
c1cncc(N2CCCC3(CN(Cc4cccs4)CCO3)C2)c1 (centres undefined) ... 9.99
NC(=O)NC(=O)CN1CCN(c2nccs2)CC1 ... -11.6
O=C(CN1CCCc2c(F)cc(Br)cc21)N1CCCC1 ... 3.5

Given the entry Cc1nn(C)c2ncnc(N3CCCC(OCc4cccnc4)C3)c12 (centres undefined) , report its measured cytotoxicity at 70.5 h.
-3.45

Given the entry Cn1cc(CN2CCCC3(COCCN(Cc4c[nH]nn4)C3)C2)cn1 (centres undefined) , report its measured cytotoxicity at 70.5 h.
0.634

Given the entry Cc1ccc2c(n1)N(CCN(C)C)CCN(C(=O)c1ccco1)C2 , report its measured cytotoxicity at 70.5 h.
-4.83

Given the entry Cc1c[nH]c(CN2CCCCC2CCc2cccc(O)c2)c(C)c1=O (centres undefined) , report its measured cytotoxicity at 70.5 h.
-5.58

Given the entry Cc1cnc(N2CC[C@@H]3O[C@@H](COCc4ccccn4)CC[C@@H]32)nc1 , report its measured cytotoxicity at 70.5 h.
-8.03

Given the entry Cc1noc(C)c1CN1C[C@@H]2CCCO[C@@H]2[C@H](NS(C)(=O)=O)C1 , report its measured cytotoxicity at 70.5 h.
-9.8

Given the entry Cc1nc(NCCSc2cnn[nH]2)c2c(C)noc2n1 , report its measured cytotoxicity at 70.5 h.
7.78

Given the entry O=C(COc1ccc(F)cc1)N1CCCSCC1CN1CCOCC1 (centres undefined) , report its measured cytotoxicity at 70.5 h.
5.05

Given the entry O=C(NCc1cccnc1)C1=NOC2(CCN(C(=O)N3CCCC3)C2)C1 (centres undefined) , report its measured cytotoxicity at 70.5 h.
-9.94

Given the entry c1cn2c(n1)CN(Cc1ccsc1)CC(Cn1cncn1)C2 (centres undefined) , report its measured cytotoxicity at 70.5 h.
-11.2

Given the entry NS(=O)(=O)CCNC(=O)c1cc2cccc(F)c2o1 , report its measured cytotoxicity at 70.5 h.
18

Given the entry Cc1c(-c2cc(C(F)(F)F)nc(N3CCC(N)CC3)n2)cnn1C , report its measured cytotoxicity at 70.5 h.
32.2

Given the entry O=c1[nH]c2nc(NCC3CCCO3)ncc2c(=O)n1-c1cccc(F)c1 (centres undefined) , report its measured cytotoxicity at 70.5 h.
4.03

Given the entry Cc1ccc(CN2CCOCS2(=O)=O)cc1F , report its measured cytotoxicity at 70.5 h.
-9.79

Given the entry O=C(NCc1nncn1-c1ccccc1)C1CC1 , report its measured cytotoxicity at 70.5 h.
-1.31

Given the entry N#Cc1cc(S(N)(=O)=O)ccc1N1CCc2c(Cl)cccc2C1 , report its measured cytotoxicity at 70.5 h.
42.5
